tested on: PC-3; test: NCI tumour cell line growth inhibition, 48 h
Counter-ions that a name gives are not always drawn. The source made the active and inactive calls. Rule as the data show it: active = GI50 up to about 1.1 µM and inactive = higher.
Attribute measured: GI50

Challenge: // fetch PC-3 GI50 for `CC(C)(C)C(=O)CC(=O)C(F)(F)C(F)(F)C(F)(F)F`
Response given: 13.6 µM (inactive)

Challenge: # get_value(readout= GI50, system= PC-3) for `CCCCCCc1cc2cc(-c3cn4ccccc4n3)c(=O)oc2cc1O`
Response given: 18.7 µM (inactive)

Challenge: Lab note: need GI50 with PC-3 for entry O=C1C(=Cc2ccco2)C(=O)C2CCCCC12 (stereo unspecified) , please look it up.
Response given: > 100 µM (inactive)

Challenge: Kindly state the measured GI50 obtained for `N/N=C1\C(OC(=O)Nc2cccc(Cl)c2)=Nc2ccccc21` with PC-3.
Response given: 4.98 µM (inactive)

Challenge: Identify the measured GI50 of `C=CCN(c1cc(OCc2ccccc2)c2[nH]cc(C)c2c1)S(C)(=O)=O` for PC-3.
Response given: 49.4 µM (inactive)

Challenge: Checklist item: GI50 tested on PC-3, entry CC[C@@H]1C(=O)OC[C@@H]1Cc1cncn1C [PILOCARPINE HYDROCHLORIDE] , value?
Response given: > 100 µM (inactive)

====

tested on: A549; experiment: NCI tumour cell line growth inhibition, 48 h
Activity calls are given as the source filed them. Rule as the data show it: active = GI50 up to about 1.1 µM and inactive = higher.
Consider the following compounds; for each one, report its GI50.

Challenge: Write down the reported GI50 of CC(C)=C1CCC(CN2CCCC2)C1=O (stereo not given) , test system: A549.
Response given: > 100 µM (inactive)

Challenge: Lab request: please report GI50 under test system A549 for `O=C1c2ccccc2C(=O)N1CCc1nc(-c2ccccc2)c[nH]1`
Response given: > 100 µM (inactive)

Challenge: Enter reported GI50 observed with A549 for CN1CCN2c3ccccc3CC(C#N)(C#N)C2C1 (stereo not given)
Response given: > 100 µM (inactive)

Challenge: Recall the recorded GI50 for `CO[C@@H]1[C@H](OC(=O)NC(=O)CCl)CC[C@]2(CO2)[C@H]1[C@@]1(C)O[C@@H]1CC=C(C)C` with A549 and state it.
Response given: 7.23 µM (inactive)

Challenge: Quick check: GI50 on A549, item O=C1NC(=O)C(F)(n2cc(F)c(=O)[nH]c2=O)C(O)N1 (stereo not given) ?
Response given: > 10 µM (inactive)

====

system: NCI-H226; assay: NCI tumour cell line growth inhibition, 48 h
Counter-ions that a name gives are not always drawn. Calls of active or inactive are those of the source. No stated cut-off is given here; in the data, active = GI50 up to about 1.1 µM and inactive = higher.
Attribute measured: GI50

Challenge: Need GI50 of Nc1cccc2c1C1=NNC(=O)CC1C2 (configuration not stated) , thanks.
Response given: > 100 µM (inactive)

Challenge: Given the compound `CCCn1c(SCC)c2cc3cc4ccccc4cc3cc2c1-c1nc(F)nc(F)n1` , what is its reported GI50?
Response given: > 100 µM (inactive)

Challenge: Requested field: GI50. Item: `CCCCCCCCCc1cc(=O)c2c(O)cccc2o1`
Response given: 38.1 µM (inactive)

Challenge: Entry `Cn1c(N)c(/N=N/c2ccc(S(N)(=O)=O)cc2)c(=O)n(C)c1=O` : reported GI50 = ?
Response given: > 100 µM (inactive)

Challenge: So what does the record say about GI50 for `Cc1nc2c(O)c3c(c(O)c2nc1C)C1C=CC3CC1` ?
Response given: 29.6 µM (inactive)

Challenge: Data request, read-out GI50, for `CCN(CC)CCC(=O)c1ccc(Cl)c(Cl)c1`
Response given: > 100 µM (inactive)

Challenge: Requested field: GI50. Item: `c1ccc2c(c1)OCCc1cn[nH]c1-2`
Response given: 22.2 µM (inactive)

Challenge: Look up GI50 for this compound: O=C1CCC2(CC1CC[S+]([O-])c1ccccc1)OCCO2 (configuration not stated)
Response given: > 100 µM (inactive)

Challenge: Record request: GI50 value, item `O=C(/C=C\c1ccc(Cl)c(Cl)c1)c1ccc(Cl)cc1Cl`
Response given: 9.51 µM (inactive)

Challenge: // lookup GI50 for `CCCSC1=N/C(=C\c2ccco2)C(=O)N1`
Response given: > 100 µM (inactive)

Challenge: Entry COc1cc(C2c3cc4c(cc3[C@@H](Nc3ccc(C(=O)O)cc3)C3COC(=O)[C@H]23)OCO4)cc(OC)c1O (some centres not stated) : reported GI50 = ?
Response given: 4.47 µM (inactive)

Challenge: Entry under review: CC(C)CC(NC(O)[BH2-][N+](C)(C)C)C(=O)NC(Cc1ccccc1)C(=O)N[C@H]1c2ccsc2/C(=N/O)[C@H]1O (some centres not stated) . Reported GI50?
Response given: > 100 µM (inactive)

Challenge: Form field: reported GI50 of `O=Cc1ccc(Oc2c3ccccc3nc3ccccc23)cc1`
Response given: 4.03 µM (inactive)

Challenge: What GI50 value was documented for this compound, `COc1c(-c2nc3ccc(N4CCN(C)CC4)cc3[nH]2)cc(OC)c2[nH]c(CO)nc12` ?
Response given: > 100 µM (inactive)

Challenge: Recorded GI50 of `C[C@@H]1C[C@H]2OC(=O)[C@@]3(C)CCC[C@@](C)([C@@H]23)[C@@]1(O)CCc1ccoc1` , please.
Response given: > 61.2 µM (inactive)

Challenge: Quick check: GI50 of `Cc1ccc(S(=O)(=O)N2CCC(C(=O)O)(c3ccccc3)CC2)cc1` ?
Response given: > 100 µM (inactive)

Challenge: Fill blank: measured GI50 of the compound `Cc1cc(NCCCCCCNc2cc(C)nc3ccc(Cl)cc23)c2cc(Cl)ccc2n1` is ____.
Response given: > 100 µM (inactive)

Challenge: Sample O=C(CC(=O)N(C(=O)/C=C\c1ccccc1)c1ccc(Cl)cc1)N1N=C(c2ccccc2)C(/N=N/c2cccc([N+](=O)[O-])c2)C1=O (configuration not stated) — what was its GI50?
Response given: 13.2 µM (inactive)

Challenge: Any idea what its GI50 is? The compound is O=C(Nc1ccc(Cl)cc1Cl)OC(Cn1cncn1)c1ccc(Cl)cc1Cl (configuration not stated)
Response given: 19.7 µM (inactive)

Challenge: # query: GI50 of entry Nc1ncnc2c1ncn2C1OC(CO)C2OC21 (configuration not stated)
Response given: > 100 µM (inactive)

Challenge: GET /values?readout=GI50&item= CC[C@@H]1C(=O)OC[C@@H]1Cc1cncn1C [PILOCARPINE HYDROCHLORIDE]
Response given: > 100 µM (inactive)

Challenge: Form field: reported GI50 of `C[C@]12CC[C@@H]3c4ccc(OCCN5CCCC5)cc4CC[C@H]3[C@@H]1CCC2=O`
Response given: 19.6 µM (inactive)

Challenge: If you can, please state the reported GI50 value of `NNc1ncc2c(n1)-c1ccccc1OC2` .
Response given: 75.2 µM (inactive)

Challenge: I would be grateful if you could share the reported GI50 for COc1cc(OC)c2c(c1OC)OCC(Cc1ccc(O)cc1)C2=O (configuration not stated) .
Response given: > 25 µM (inactive)

Challenge: Find the recorded GI50 belonging to `C[C@]12CC[C@@H]3c4ccc(O)cc4CC[C@H]3[C@@H]1C/C(=C\c1ccc(C#N)cc1)C2=O` and report it.
Response given: 37.9 µM (inactive)

Challenge: Which measured GI50 value corresponds to `C/C(=N\c1ccc(N(C)C)cc1)c1ccccc1` ?
Response given: 76.2 µM (inactive)

Challenge: Which measured GI50 value corresponds to `COc1ccc(C#Cn2nnc3ccccc32)cc1` ?
Response given: 64.7 µM (inactive)

Challenge: Which value of GI50 has been reported for COc1ccc(CC2c3cc(Oc4cc(CC5c6cc(OC)c(OC)cc6CCN5C)ccc4O)c(OC)cc3CCN2C)cc1 (configuration not stated) in the records?
Response given: 10.2 µM (inactive)

Challenge: Consider the compound shown here: `CCCCCCNC(=O)c1cc(NCc2cc(OC)ccc2OC)ccc1O` What is its recorded GI50?
Response given: 20 µM (inactive)

Challenge: Can you share its GI50? I mean this compound: Cc1cn(C2CC(O)C(CO)O2)c(=O)n2nnnc12 (configuration not stated)
Response given: > 100 µM (inactive)

Challenge: State the recorded GI50 for this entry: O=C1C(Br)=C[C@H]2C3C=CC(Br)(C3=O)[C@@H]12 (some centres not stated)
Response given: 19 µM (inactive)

Challenge: Consider the compound O=C(Cc1ccccc1)NN1C(=O)C(Cl)C1c1ccccc1Cl (configuration not stated) and give its measured GI50.
Response given: > 100 µM (inactive)

Challenge: Suppose we examine the compound `COC(=O)Cc1c([C@H]2[C@H](CC(=O)OC)c3ccccc3N2C(C)=O)[nH]c2ccccc12` ; what GI50 value has been reported?
Response given: > 100 µM (inactive)

Challenge: Report GI50 for `O=C1CCCC(=O)N1n1c(Cc2ccc(Cl)cc2)n[nH]c1=O` please.
Response given: > 100 µM (inactive)

Challenge: What measured GI50 goes with `Cc1ccc(CC(=O)Nc2ccc(NC(=O)/C=C/NC(=O)/C=C/c3ccc(-c4ccccc4)cc3)cc2C(=O)c2ccccc2)cc1` ?
Response given: 2.42 µM (inactive)

Challenge: Fill in the blank: the reported GI50 of N#CCc1ccc(C(C#N)/C(CCCC(=O)Nc2cccc([N+](=O)[O-])c2)=N/NC(N)=S)cc1 (configuration not stated) is ____.
Response given: > 100 µM (inactive)

Challenge: Could you tell me which GI50 is on file for Nc1ncnc2c1nnn2C1C=C(CO)C(O)C1O (configuration not stated) ?
Response given: > 100 µM (inactive)

Challenge: # get_value(readout='GI50', item= `CCSc1nnc2c(-c3ccccc3)n[nH]c2n1` )
Response given: > 100 µM (inactive)

Challenge: GI50 lookup needed for `COCOc1cc(OC)ccc1C=O` , thanks.
Response given: 40.8 µM (inactive)

Challenge: Which GI50 reading was recorded for the compound `CN(C)c1ccc(/N=N/c2ccc3[nH]cnc3c2)cc1` ?
Response given: 34 µM (inactive)

Challenge: I am curious: what GI50 value has been reported for `O=C(/N=c1/[nH]/c(=N/C(=O)c2ccccc2)ss1)c1ccccc1` ?
Response given: 38.8 µM (inactive)

Challenge: I have this compound here, `COc1ccc2c(c1)C=C(C(C)(C)C)NS2(=O)=O` , and I need its recorded GI50.
Response given: > 100 µM (inactive)
